system: RBL-2H3 cells; experiment: Calcium assay, Fluo-4 (Example 3); type: cell-based, rat; settings: 5 ng/mL DNP-BSA, at 2 minutes
I'd appreciate it if you could supply percent inhibition of calcium influx values for the items below.
Reply with a number, then the unit it belongs to.

Please report the recorded percent inhibition of calcium influx for CCCCCCCC(=O)NCC(C)C [YM8-85, N-Isobutyloctanamide] . 49%

Can you handle CCCCCCCCCCCC(=O)NCC(C)C [YM5-27, N-Isobutyldodecanamide] next? 65%

Please do the same for CCCCCCCCCC(=O)NCC(C)C [YM8-86, N-Isobutyldecanamide] as well. 40%

Further, for CCCCCC(=O)NCC(C)C [YM5-47, N-Isobutylhexanamide] ? 38%

Let us now turn to CCCCCCC/C=C/C=C/C(=O)NCC(C)C [A15, (2E,4E)-N-Isobutyldodeca-2,4-dienamide] 66%

Reference source for all entries: patent US20200290950A1
